assay: Drugrecovery in human liver microsomes after 10 mins; format: ADME
quantity-name: remaining at 10 min

Problem: Please look at this molecule and report its remaining at 10 min: "CC(C)(C)c1ccc(C(=O)N[C@@H]2CCCN(c3ccc(C(N)=O)c(Nc4ccc(C(=O)N5CCOCC5)cc4)n3)C2)cc1"
Result: < 3%

###

Measured IC50, listed per entry.
target: Tyrosine-protein kinase BTK (Homo sapiens, UniProt Q06187); test: Inhibition of human recombinant BTK
Sequence (Q06187 whole entry): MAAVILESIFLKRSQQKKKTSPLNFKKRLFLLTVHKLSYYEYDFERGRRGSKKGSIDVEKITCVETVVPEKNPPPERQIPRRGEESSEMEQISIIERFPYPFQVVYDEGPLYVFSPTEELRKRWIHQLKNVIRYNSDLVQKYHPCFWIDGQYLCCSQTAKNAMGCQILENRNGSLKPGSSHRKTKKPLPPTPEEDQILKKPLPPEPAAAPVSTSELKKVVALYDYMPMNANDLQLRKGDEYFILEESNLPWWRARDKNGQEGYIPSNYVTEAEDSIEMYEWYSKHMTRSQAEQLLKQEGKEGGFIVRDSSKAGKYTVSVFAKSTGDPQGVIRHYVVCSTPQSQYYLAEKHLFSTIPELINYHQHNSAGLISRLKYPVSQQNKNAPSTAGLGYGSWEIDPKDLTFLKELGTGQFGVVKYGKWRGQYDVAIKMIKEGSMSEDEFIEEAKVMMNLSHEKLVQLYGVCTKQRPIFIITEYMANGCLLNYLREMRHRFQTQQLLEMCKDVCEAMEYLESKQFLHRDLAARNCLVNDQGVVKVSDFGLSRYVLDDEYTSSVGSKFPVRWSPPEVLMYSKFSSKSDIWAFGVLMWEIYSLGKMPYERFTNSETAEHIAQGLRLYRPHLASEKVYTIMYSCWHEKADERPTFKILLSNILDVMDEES
Give a bare numeral; the unit nM is implied.

Observe how each entry below is paired with its result.
smiles-record: CN1CCN(C(=O)c2ccc3c(c2)[nH]c2c(C(N)=O)ccc(-c4cccc(NC(=O)c5ccc(F)cc5)c4)c23)CC1
experimental-result: 39
--
smiles-record: CN1CCN(C(=O)c2ccc3c(c2)[nH]c2c(C(N)=O)ccc(-c4cccc(Cl)c4)c23)CC1
experimental-result: 38
--
smiles-record: CN1CCN(C(=O)c2ccc3c(c2)[nH]c2c(C(N)=O)ccc(-c4ccc(F)cc4F)c23)CC1
experimental-result: 22

Problem: For the compound "NC(=O)c1cc(-c2ccc(Cl)c(Cl)c2)cc2c1[nH]c1ccc(C(=O)N3CCOCC3)cc12" , give its measured IC50 value.
Result: 461

Problem: Tell me IC50 reported for "CN1CCN(C(=O)c2ccc3c(c2)[nH]c2c(C(N)=O)ccc(-c4ccc(C(C)(C)C)cc4)c23)CC1"
Result: 103

Problem: Report IC50, nothing else, for this compound: "Cc1ccccc1-c1ccc(C(N)=O)c2[nH]c3cc(C(=O)N4CCN(C)CC4)ccc3c12"
Result: 24

###

Collected log10(IC50) values appear next to each entry.
target: UniProtKB Q06187; assay: Inhibition of human recombinant BTK
Friendly reminder: values = log10 of IC50, unit nM.

Recorded results for 3 molecules are shown here.
smiles-record: COc1cccc(-c2ccc(C(N)=O)c3[nH]c4cc(C(=O)N5CCN(C)CC5)ccc4c23)c1
quantity-name: log10(IC50)
experimental-result: 1.51

smiles-record: COc1ccc(-c2cc(C(N)=O)c3[nH]c4cc(C(=O)N5CCN(C)CC5)ccc4c3c2)cc1
quantity-name: log10(IC50)
experimental-result: 2.64

smiles-record: CN1CCN(C(=O)c2ccc3c(c2)[nH]c2c(C(N)=O)cc(-c4ccc(Cl)c(Cl)c4)cc23)CC1
quantity-name: log10(IC50)
experimental-result: 2.91

Query molecule follows.
Problem: Look up and state reported log10(IC50) for "CC(=O)Nc1cccc(-c2ccc(C(N)=O)c3[nH]c4cc(C(=O)N5CCN(C)CC5)ccc4c23)c1"
Result: 1.48

###

target: Tyrosine-protein kinase BTK (Homo sapiens); test: Inhibition of human recombinant BTK
quantity-name: pIC50
Scale: negative log10 of molar concentration, which is what pIC50 denotes.

Please review the entries below; each comes with its answer.
smiles-record: COc1ccc(-c2ccc(C(N)=O)c3[nH]c4ccc(C(=O)N5CCN(C)CC5)cc4c23)cc1
test-target: Tyrosine-protein kinase BTK (Homo sapiens)
pIC50: 7.54
//
smiles-record: COc1cccc(-c2ccc(C(N)=O)c3[nH]c4ccc(C(=O)N5CCN(C)CC5)cc4c23)c1
test-target: Tyrosine-protein kinase BTK (Homo sapiens)
pIC50: 7.55

--- query ---
Problem: Report measured pIC50; entry is "CN1CCN(C(=O)c2ccc3c(c2)[nH]c2c(C(N)=O)ccc(-c4cccc(NC(=O)c5ccc(F)cc5)c4F)c23)CC1"
Result: 8.03
